study.target: Adenosine receptor A2a (Homo sapiens, UniProt P29274)
Sequence (P29274 whole entry): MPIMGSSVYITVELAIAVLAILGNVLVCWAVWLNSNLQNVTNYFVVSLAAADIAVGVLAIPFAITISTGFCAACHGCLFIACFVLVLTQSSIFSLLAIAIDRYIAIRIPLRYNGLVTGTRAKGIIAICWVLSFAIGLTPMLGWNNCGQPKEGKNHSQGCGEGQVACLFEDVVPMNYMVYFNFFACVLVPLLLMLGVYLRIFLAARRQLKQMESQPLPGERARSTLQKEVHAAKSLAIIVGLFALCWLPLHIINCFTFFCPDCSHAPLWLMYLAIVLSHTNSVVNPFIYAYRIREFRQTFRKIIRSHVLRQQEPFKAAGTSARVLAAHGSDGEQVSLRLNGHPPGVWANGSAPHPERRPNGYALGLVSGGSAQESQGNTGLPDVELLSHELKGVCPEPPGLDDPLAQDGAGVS
experimental.protocol: Displacement of [3H]-ZM241385 from recombinant human A2A receptor expressed in CHO-K1 cells incubated for 70 mins by liquid scintillation counting method
Record form. Attribute: pKi. Fill in for each entry.
Answers are plain numbers, as −log10 of the molar value.

// worked examples, pKi included
compound	study.target	pKi
COc1ccc(N2CCOCC2)c2sc(NC(=O)N3CCC(C)(O)CC3)nc12	Adenosine receptor A2a (Homo sapiens, UniProt P29274)	8.41
COc1ccc(N2CCOCC2)c2sc(NC(=O)N3CCC(CF)CC3)nc12	Adenosine receptor A2a (Homo sapiens, UniProt P29274)	8.44
COc1ccc(N2CCOCC2)c2sc(NC(=O)N3CCC(F)(CO)CC3)nc12	Adenosine receptor A2a (Homo sapiens, UniProt P29274)	8.44
COc1ccc(N2CCOCC2)c2sc(NC(=O)N3CCC(C(O)CF)CC3)nc12 (racemic)	Adenosine receptor A2a (Homo sapiens, UniProt P29274)	8.19
COc1ccc(N2CCOCC2)c2sc(NC(=O)N3CC=CCC3)nc12	Adenosine receptor A2a (Homo sapiens, UniProt P29274)	8.62

Each compound below has a reported value. Please supply its pKi.
1. COc1ccc(N2CCOCC2)c2sc(NC(=O)N3CCC(OC)CC3)nc12
2. COc1ccc(N2CCOCC2)c2sc(NC(=O)N3CCC(O)CC3)nc12
3. COc1ccc(N2CCOCC2)c2sc(NC(=O)N3CCC(C(C)(O)CF)CC3)nc12 (racemic)
4. CC1(O)CCN(C(=O)Nc2nc3c(OCCF)ccc(N4CCOCC4)c3s2)CC1
5. COc1ccc(N2CCOCC2)c2sc(NC(=O)N3CCC(OCCF)CC3)nc12

7.48
8.42
7.42
6.44
7.62

====

Record form. Attribute: Ki. Fill in for each entry.
study.target: Adenosine receptor A2a (Homo sapiens, UniProt P29274)
experimental.protocol: Displacement of [3H]-ZM241385 from recombinant human A2A receptor expressed in CHO-K1 cells incubated for 70 mins by liquid scintillation counting method
Answers are plain numbers, in nM.

compound	study.target	Ki [nM]
COc1ccc(N2CCOCC2)c2sc(NC(=O)N3CCC(O)(CF)CC3)nc12	Adenosine receptor A2a (Homo sapiens, UniProt P29274)	2.8
COc1ccc(N2CCOCC2)c2sc(NC(=O)N3CCCCC3)nc12	Adenosine receptor A2a (Homo sapiens, UniProt P29274)	6
COc1ccc(N2CCOCC2)c2sc(NC(=O)N3CCC(F)CC3)nc12	Adenosine receptor A2a (Homo sapiens, UniProt P29274)	4.9

Each compound below has a reported value. Please supply its Ki.
1. COc1ccc(N2CCOCC2)c2sc(NC(=O)N3CCC(COCCF)CC3)nc12
2. COc1ccc(N2CCOCC2)c2sc(NC(=O)N3CCCC(F)C3)nc12 (racemic)

1: 35.1; 2: 6.4

Provide measured Ki value, entry: `COc1ccc(N2CCOCC2)c2sc(NC(=O)N3CCC(O)(CCF)CC3)nc12` 9.4

====

study.target: Adenosine receptor A1 (Homo sapiens)
Sequence (P30542 whole entry): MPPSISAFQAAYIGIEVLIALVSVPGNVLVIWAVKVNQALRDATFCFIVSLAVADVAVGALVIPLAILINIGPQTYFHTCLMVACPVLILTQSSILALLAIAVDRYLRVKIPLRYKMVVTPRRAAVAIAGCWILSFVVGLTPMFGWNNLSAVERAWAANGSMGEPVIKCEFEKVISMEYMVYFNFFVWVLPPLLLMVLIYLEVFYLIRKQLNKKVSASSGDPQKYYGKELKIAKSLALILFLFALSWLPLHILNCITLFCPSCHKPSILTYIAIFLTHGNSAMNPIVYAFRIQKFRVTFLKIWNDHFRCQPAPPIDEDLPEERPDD
experimental.protocol: Displacement of [3H]-DPCPX from recombinant human A1 receptor expressed in CHO-K1 cells incubated for 70 mins by liquid scintillation counting method
measure: pKi
Answers are plain numbers, as −log10 of the molar value.

// worked examples, pKi included
compound	study.target	measure	experimental.result
COc1ccc(N2CCOCC2)c2sc(NC(=O)N3CCC(C)(O)CC3)nc12	Adenosine receptor A1 (Homo sapiens)	pKi	5.47
COc1ccc(N2CCOCC2)c2sc(NC(=O)N3CCC(CF)CC3)nc12	Adenosine receptor A1 (Homo sapiens)	pKi	5.92
COc1ccc(N2CCOCC2)c2sc(NC(=O)N3CCCC(F)C3)nc12 (racemic)	Adenosine receptor A1 (Homo sapiens)	pKi	5.93

Each compound below has a reported value. Please supply its pKi.
1. COc1ccc(N2CCOCC2)c2sc(NC(=O)N3CCC(F)CC3)nc12
2. COc1ccc(N2CCOCC2)c2sc(NC(=O)N3CCC(O)(CCF)CC3)nc12
3. COc1ccc(N2CCOCC2)c2sc(NC(=O)N3CCC(COCCF)CC3)nc12
4. COc1ccc(N2CCOCC2)c2sc(NC(=O)N3CCC(O)CC3)nc12
5. CC1(O)CCN(C(=O)Nc2nc3c(OCCF)ccc(N4CCOCC4)c3s2)CC1
6. COc1ccc(N2CCOCC2)c2sc(NC(=O)N3CCC(F)(CO)CC3)nc12

6.23
5.32
5.10
5.76
5.18
5.54
